- Test system: Wolbachia pipientis
- Experiment notes: Anti-Wolbachia Cell-Based Screen
- Type: functional
- Design: scale not given: in the data most compounds retested in dose-response had high values
- Recorded conditions: 5 µM
Screen size: about 48,000 compounds; about 13,000 (27%) showed an effect of 50% or more. Some of the results follow.
As shown below, each of these compounds has a reported Percent Effect value.
Please report the result as a number followed by the unit.

Take a look at these entries with their results.
{"Compound": "CNC(=O)NC(=O)CN1CCC(c2c[nH]c3ccc(OC)cc23)CC1", "Percent Effect": "-6.098%"}
{"Compound": "O=C(O)C(F)(F)F.c1csc(CN2C[C@H](OCC3CC3)[C@H]3COC[C@H]32)n1", "Percent Effect": "114.6%"}
{"Compound": "Cc1nc(CN2CCOC(CN(C)c3cccnn3)C2)cs1 (stereo unspecified)", "Percent Effect": "1.717%"}
{"Compound": "COCCC(=O)NCc1ccc(-c2ccccc2C(=O)O)cn1", "Percent Effect": "105.5%"}

Consider the compound O=C(O)C(F)(F)F.c1csc(CN2C[C@H](OCC3CCOCC3)[C@H]3COC[C@H]32)n1 and give its measured Percent Effect.
78.63%

Consider the compound CC(C)c1ncc(CN2C[C@@H](CN3CCCC3)[C@@H](CO)C2)cn1 and give its measured Percent Effect.
-18.71%

Consider the compound CCN(Cc1nc(COC)no1)C(=O)CCNC(=O)c1ccccc1F and give its measured Percent Effect.
-2.73%

Consider the compound COc1ccc2c(c1)CCCN2C(=O)NC1CCCCNC1=O (stereo unspecified) and give its measured Percent Effect.
-4.83%

Consider the compound CCOc1ccc(CC(CNC(=O)c2sccc2C)C(N)=O)cc1 (stereo unspecified) and give its measured Percent Effect.
1.626%

Consider the compound Cc1ncccc1Oc1nccnc1C1CCN(C(C)C)CC1 and give its measured Percent Effect.
-4.012%

Consider the compound CCOc1ccc(CC(CNC(=O)c2ccc(C)s2)C(N)=O)cc1 (stereo unspecified) and give its measured Percent Effect.
-16.33%
